- target-system: cdc2/cyclinB (Homo sapiens)
- Sequence (P06493 whole entry, species assumed): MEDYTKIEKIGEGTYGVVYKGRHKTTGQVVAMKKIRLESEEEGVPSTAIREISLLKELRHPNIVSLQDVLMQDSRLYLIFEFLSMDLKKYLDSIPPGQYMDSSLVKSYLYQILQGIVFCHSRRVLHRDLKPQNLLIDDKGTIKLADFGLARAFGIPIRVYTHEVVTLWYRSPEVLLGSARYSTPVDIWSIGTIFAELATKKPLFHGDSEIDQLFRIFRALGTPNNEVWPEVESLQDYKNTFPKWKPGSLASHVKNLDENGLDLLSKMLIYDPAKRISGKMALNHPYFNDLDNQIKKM
- Sequence (P14635 whole entry partner, species assumed): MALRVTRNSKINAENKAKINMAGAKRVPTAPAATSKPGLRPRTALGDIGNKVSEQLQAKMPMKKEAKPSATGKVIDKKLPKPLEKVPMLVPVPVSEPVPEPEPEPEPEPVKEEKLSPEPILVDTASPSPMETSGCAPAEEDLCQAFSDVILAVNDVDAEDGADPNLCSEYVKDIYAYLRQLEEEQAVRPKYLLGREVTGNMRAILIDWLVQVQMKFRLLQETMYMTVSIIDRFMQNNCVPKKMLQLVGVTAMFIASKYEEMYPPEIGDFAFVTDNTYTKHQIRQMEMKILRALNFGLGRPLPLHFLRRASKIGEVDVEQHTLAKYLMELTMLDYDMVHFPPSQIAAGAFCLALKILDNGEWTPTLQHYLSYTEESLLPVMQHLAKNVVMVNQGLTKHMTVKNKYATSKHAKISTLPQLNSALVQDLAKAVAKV
- protocol-details: Cyclin-dependent kinase assay cdc2/cyclinB
- condition-notes: cyclin dependent kinase 1/cyclin B complex; read-out: CDK1B IC50
measurement-label: IC50
Field note: include the unit after the figure.

// below: answered compounds
compound: O=c1cnc2cnc(Nc3ccc(N4CCNCC4)cc3)nc2n1C1CCCC1
measurement-label: IC50
result: 750 nM
//
compound: O=c1cnc2cnc(Nc3ccncc3)nc2n1C1CCCC1
measurement-label: IC50
result: 354 nM

Consider the additional compound presented here.
Provide measured IC50 value, entry: NC1CCN(c2ccc(Nc3ncc4ncc(=O)n(C5CCCC5)c4n3)cc2)C1 (stereo not drawn) 400 nM

The reported measurements were obtained from patent US7169778B2.
